# target-entity: human MTAP (Homo sapiens, UniProt Q13126)
# Construct: inferred from pQE32 vector and Ni-NTA purification) (N); made in house; host or cells: E. coli
# Sequence (Q13126 1-283): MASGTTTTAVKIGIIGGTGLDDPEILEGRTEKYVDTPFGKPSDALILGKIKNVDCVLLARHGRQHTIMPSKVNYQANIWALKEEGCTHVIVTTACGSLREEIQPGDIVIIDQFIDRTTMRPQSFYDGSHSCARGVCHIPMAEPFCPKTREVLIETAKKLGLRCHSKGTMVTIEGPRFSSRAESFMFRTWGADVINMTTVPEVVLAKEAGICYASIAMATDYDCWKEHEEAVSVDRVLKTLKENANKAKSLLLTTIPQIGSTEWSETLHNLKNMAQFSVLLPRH
# measurement-description: Enzyme inhibition assay, MTAP (slow-onset inhibition constants)
# Format: biochemical
# measurement-conditions: MTAP; initial inhibition constant; read-out: Ki
Measured pKi accompanies every entry in the list below.
Please report pKi as the negative decimal logarithm of the molar concentration, giving only the number.

Lab note: need pKi for Cc1ccc(SC[C@H]2N[C@@H](c3c[nH]c4c(N)ncnc34)C(O)[C@H]2O)cc1 (stereo partly shown) on human MTAP (Homo sapiens, UniProt Q13126), anyone have it?
8.80

Find pKi (human MTAP (Homo sapiens, UniProt Q13126)) for the entry Nc1ncnc2c([C@@H]3N[C@H](CSc4ccccc4)[C@H](O)C3O)c[nH]c12 (stereo partly shown)
9.05

Lookup: pKi / human MTAP (Homo sapiens, UniProt Q13126) / Nc1ncnc2c([C@@H]3N[C@H](CSc4cccc5ccccc45)[C@H](O)C3O)c[nH]c12 (stereo partly shown)
7.28

I'm curious: which pKi was measured for Nc1ncnc2c([C@@H]3N[C@H](CSCc4ccccc4)[C@H](O)C3O)c[nH]c12 (stereo partly shown) tested on human MTAP (Homo sapiens, UniProt Q13126)?
7.92

Notebook: pull reported pKi for human MTAP (Homo sapiens, UniProt Q13126), entry Nc1ncnc2c([C@@H]3N[C@H](CSc4ccc(Cl)cc4)[C@H](O)C3O)c[nH]c12 (stereo partly shown)
9.48

human MTAP (Homo sapiens, UniProt Q13126) / pKi / Cc1cccc(SC[C@H]2N[C@@H](c3c[nH]c4c(N)ncnc34)C(O)[C@H]2O)c1 (stereo partly shown) : value?
9.22

What value of pKi on human MTAP (Homo sapiens, UniProt Q13126) does CCSC[C@H]1N[C@@H](c2c[nH]c3c(N)ncnc23)C(O)[C@H]1O (stereo partly shown) have?
7.74

====

# target-entity: human MTAP (Homo sapiens, UniProt Q13126)
# Construct: inferred from pQE32 vector and Ni-NTA purification) (N); made in house; host or cells: E. coli
# measurement-description: Enzyme inhibition assay, MTAP (slow-onset inhibition constants)
# Assay type: biochemical
# measurement-conditions: MTAP; equilibrium dissociation constant after slow-onset, tight binding inhibition; read-out: Ki*
assay-endpoint: pKi
To interpret pKi, take it as minus log10 of a concentration measured in moles per litre.

Answered examples (3):
| compound | recorded-number |
| --- | --- |
| CCSC[C@H]1N[C@@H](c2c[nH]c3c(N)ncnc23)C(O)[C@H]1O (stereo partly shown) [5′-Ethylthio-ImmA] | 9.59 |
| Nc1ncnc2c([C@@H]3N[C@H](CSc4ccc(Cl)cc4)[C@H](O)C3O)c[nH]c12 (stereo partly shown) [5′-(p-Chloro-Phenyl-thio)-ImmA] | 10.05 |
| CSC[C@H]1N[C@@H](c2c[nH]c3c(N)ncnc23)C(O)[C@H]1O (stereo partly shown) [5′-methylthio-ImmA] | 10.05 |

Next:
Fill in the blank: the reported pKi of Nc1ncnc2c([C@@H]3N[C@H](CSCCF)[C@H](O)C3O)c[nH]c12 (stereo partly shown) [5′-Fluoroethylthio-ImmA] is ____.
8.82

====

# target-entity: MTAN (Escherichia coli, UniProt P0AF12)
# Sequence (P0AF12 whole entry): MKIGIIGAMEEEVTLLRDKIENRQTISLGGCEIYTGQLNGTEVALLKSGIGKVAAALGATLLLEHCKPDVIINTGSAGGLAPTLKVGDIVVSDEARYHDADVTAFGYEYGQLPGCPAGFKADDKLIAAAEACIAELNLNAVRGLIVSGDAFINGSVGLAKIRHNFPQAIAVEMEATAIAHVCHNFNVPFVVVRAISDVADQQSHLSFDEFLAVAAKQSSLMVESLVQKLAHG
# measurement-description: Enzyme inhibition assay, MTAN (slow-onset inhibition constants)
# Type: biochemical
# measurement-conditions: Ki*, MTAN; equilibrium dissociation constant after slow-onset, tight binding inhibition
Below: a set of entries, each annotated with reported pKi.
Value format note: pKi is -log10 of concentration (mol/L); just state the number.

# annotated cases, reported pKi shown
| compound | recorded-number |
| --- | --- |
| CSC[C@H]1N[C@@H](c2n[nH]c3c(N)ncnc23)C(O)[C@H]1O (stereo partly shown) | 10.59 |
| Cc1ccc(SC[C@H]2N[C@@H](c3c[nH]c4c(N)ncnc34)C(O)[C@H]2O)cc1 (stereo partly shown) | 11.10 |
| Cc1cccc(SC[C@H]2N[C@@H](c3c[nH]c4c(N)ncnc34)C(O)[C@H]2O)c1 (stereo partly shown) | 11.05 |
| Nc1ncnc2c([C@@H]3N[C@H](CSc4ccc(F)cc4)[C@H](O)C3O)c[nH]c12 (stereo partly shown) | 10.70 |
| CCSC[C@H]1N[C@@H](c2c[nH]c3c(N)ncnc23)C(O)[C@H]1O (stereo partly shown) | 10.57 |

# ---- query compound ----
If you can, please state the reported pKi value of Nc1ncnc2c([C@@H]3N[C@H](CSCCF)[C@H](O)C3O)c[nH]c12 (stereo partly shown) .
10.52

====

# target-entity: human MTAP (Homo sapiens, UniProt Q13126)
# Construct: inferred from pQE32 vector and Ni-NTA purification) (N); made in house; host or cells: E. coli
# measurement-description: Enzyme inhibition assay, MTAP (slow-onset inhibition constants)
# Type: biochemical
# measurement-conditions: MTA at 150 μM; Km=2.5 μM; read-out: Ki (FIG. 1, inhibition of MTAP at varying concentrations)
assay-endpoint: Ki (nM)
State the answer as a number, implicitly in nM.

Sample CSC[C@H]1N[C@@H](c2c[nH]c3c(N)ncnc23)C(O)[C@H]1O (stereo partly shown) [5′-methylthio-ImmA] — what was its Ki?
0.107

====

Reported pKi values for the following compounds.
# target-entity: MTAN (Escherichia coli)
# measurement-description: Enzyme inhibition assay, MTAN (slow-onset inhibition constants)
# Format: biochemical
# measurement-conditions: Ki, MTAN; initial inhibition constant
# Protocol: Ki as shown in Tables 1 and 2 is the initial inhibition constant formed by the enzyme-inhibitor complex, and Ki* is the equilibrium dissociation constant for inhibition that is observed following a period of slow-onset, tight binding inhibition. […] Inhibitors.—Inhibitor concentrations were determined by the UV absorbance spectrum using the published millimolar extinction coefficients for 9-dazadenine of 8.5 at 275 nm at pH 7.0. […] And the Ki* was calculated by fitting to the following expression […]
Please treat pKi as minus the base-10 logarithm of the molar concentration.

Any idea what its pKi is? The compound is CCSC[C@H]1N[C@@H](c2c[nH]c3c(N)ncnc23)C(O)[C@H]1O (stereo partly shown) [5′-Ethylthio-ImmA]
10.14

// lookup pKi for CSC[C@H]1N[C@@H](c2c[nH]c3c(N)ncnc23)C(O)[C@H]1O (stereo partly shown) [5′-methylthio-ImmA]
9.89

Fill blank: measured pKi of the compound CSC[C@H]1N[C@@H](c2n[nH]c3c(N)ncnc23)C(O)[C@H]1O (stereo partly shown) [5′-methylthio-8-aza-ImmA] is ____.
10.26

Please give the measured pKi for this compound: Nc1ncnc2c([C@@H]3N[C@H](CSCc4ccccc4)[C@H](O)C3O)c[nH]c12 (stereo partly shown) [5′-Benzylthio-ImmA]
10.42

# get_value(readout='pKi', item= Nc1ncnc2c([C@@H]3N[C@H](CSCCF)[C@H](O)C3O)c[nH]c12 (stereo partly shown) [5′-Fluoroethylthio-ImmA] )
9.99

====

Here the recorded pKi is given for each entry.
# target-entity: human MTAP (Homo sapiens)
# Construct: inferred from pQE32 vector and Ni-NTA purification) (N); made in house; host or cells: E. coli
# measurement-description: Enzyme inhibition assay, MTAP (slow-onset inhibition constants)
# Format: biochemical
# measurement-conditions: MTAP; initial inhibition constant; read-out: Ki
Where a name gives a salt, the structure may show the parent alone.
Note on pKi: it is the negative log10 of concentration, concentration in mol/L.

| compound | target-entity | pKi |
| --- | --- | --- |
| C[C@H]1N[C@@H](c2c[nH]c3c(N)ncnc23)[C@H](O)[C@@H]1O [5′-deoxy-ImmA, hydrochloride] | human MTAP (Homo sapiens) | 6.66 |

Tell me reported pKi for Nc1ncnc2c([C@@H]3N[C@H](CSCCF)[C@H](O)C3O)c[nH]c12 (stereo partly shown) , tested with human MTAP (Homo sapiens).
8.15

Provide value of pKi for this record tested with human MTAP (Homo sapiens): Nc1ncnc2c([C@@H]3N[C@H](CSc4cccc(Cl)c4)[C@H](O)C3O)c[nH]c12 (stereo partly shown)
8.40

Missing value: pKi, human MTAP (Homo sapiens), entry CSC[C@H]1N[C@@H](c2c[nH]c3c(N)ncnc23)C(O)[C@H]1O (stereo partly shown) . Fill in?
8.30

meta.source: patent US7098334B2
